# Assay System: Protein-tyrosine kinase 2-beta (Homo sapiens, UniProt Q14289); note: in the data inactive means no Kd found up to 30 µM
# Sequence (Q14289 whole entry): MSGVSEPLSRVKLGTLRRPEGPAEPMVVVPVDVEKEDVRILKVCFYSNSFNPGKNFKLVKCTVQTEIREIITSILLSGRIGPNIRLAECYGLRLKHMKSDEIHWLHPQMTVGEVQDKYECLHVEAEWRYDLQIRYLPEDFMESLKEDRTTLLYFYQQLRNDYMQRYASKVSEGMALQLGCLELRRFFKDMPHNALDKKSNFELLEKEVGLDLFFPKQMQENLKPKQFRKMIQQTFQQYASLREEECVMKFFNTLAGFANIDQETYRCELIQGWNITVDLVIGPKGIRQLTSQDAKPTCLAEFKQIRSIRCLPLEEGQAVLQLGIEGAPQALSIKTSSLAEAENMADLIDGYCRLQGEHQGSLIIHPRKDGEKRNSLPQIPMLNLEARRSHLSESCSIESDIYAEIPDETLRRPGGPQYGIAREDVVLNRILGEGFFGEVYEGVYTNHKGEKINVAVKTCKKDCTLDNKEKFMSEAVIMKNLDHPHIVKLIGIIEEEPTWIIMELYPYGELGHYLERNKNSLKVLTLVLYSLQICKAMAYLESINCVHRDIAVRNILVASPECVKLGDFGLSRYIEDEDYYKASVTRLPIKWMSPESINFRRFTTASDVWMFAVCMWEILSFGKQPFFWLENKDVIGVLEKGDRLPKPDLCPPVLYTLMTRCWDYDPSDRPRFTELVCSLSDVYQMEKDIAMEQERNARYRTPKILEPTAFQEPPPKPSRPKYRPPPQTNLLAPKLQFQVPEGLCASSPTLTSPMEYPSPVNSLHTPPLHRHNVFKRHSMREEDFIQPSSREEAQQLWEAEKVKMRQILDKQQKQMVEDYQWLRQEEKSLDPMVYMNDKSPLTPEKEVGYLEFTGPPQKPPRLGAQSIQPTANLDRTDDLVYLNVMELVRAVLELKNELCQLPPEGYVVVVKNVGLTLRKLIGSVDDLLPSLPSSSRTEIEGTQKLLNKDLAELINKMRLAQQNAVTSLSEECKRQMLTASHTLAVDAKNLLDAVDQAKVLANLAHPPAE
Counter-ions that a name gives are not always drawn. The source made the active and inactive calls.
Please answer using one outcome listed in True for active, False for inactive

Dear colleague, could you share the recorded outcome for `Cc1cccc(-c2nn3c(c2-c2ccnc4ccc(C(N)=O)cc24)CCC3)n1` when you have a moment?
False

Next:
Dear colleague, could you share the recorded outcome for `C[C@@H](NC(=O)c1ncnc(N)c1Cl)c1ncc(C(=O)Nc2cc(C(F)(F)F)c(Cl)cn2)s1` when you have a moment?
False

Dear colleague, could you share the recorded outcome for `O=C(Nc1c[nH]nc1-c1nc2cc(CN3CCOCC3)ccc2[nH]1)NC1CC1` when you have a moment?
False

Dear colleague, could you share the recorded outcome for `COc1cc(Nc2ncc3c(n2)-c2ccc(Cl)cc2C(c2c(F)cccc2OC)=NC3)ccc1C(=O)O` when you have a moment?
False

Dear colleague, could you share the recorded outcome for `CN1C/C=C/CCOc2cccc(c2)-c2ccnc(n2)Nc2cccc(c2)C1` when you have a moment?
False

Dear colleague, could you share the recorded outcome for `C[C@@H](Oc1cc(C(=O)Nc2ccc(C(=O)N3CCN(C)CC3)cc2)nnc1N)c1c(Cl)ccc(F)c1Cl` when you have a moment?
False

Dear colleague, could you share the recorded outcome for `Cc1cc(C(=O)NOCCO)c(Nc2ccc(I)cc2F)n(C)c1=O` when you have a moment?
False

Dear colleague, could you share the recorded outcome for `CC(C)(C)c1nc(-c2cccc(NS(=O)(=O)c3c(F)cccc3F)c2F)c(-c2ccnc(N)n2)s1` when you have a moment?
False

Dear colleague, could you share the recorded outcome for `Cc1cc(Nc2ncnc3ccc(NC4=NC(C)(C)CO4)cc23)ccc1Oc1ccn2ncnc2c1` when you have a moment?
False

Dear colleague, could you share the recorded outcome for `CCn1c(C(=O)N(C2CC2)C2CC2)cc2c3c(ncn3C)c(Nc3cc(C)n(C)n3)nc21` when you have a moment?
False

Dear colleague, could you share the recorded outcome for `NC(=O)Nc1cc(-c2cccc(F)c2)sc1C(=O)N[C@H]1CCCNC1` when you have a moment?
True

Dear colleague, could you share the recorded outcome for `CNC(=O)c1nn(C)c2c1C(C)(C)Cc1cnc(Nc3ccc(N4CCN(C)CC4)cc3)nc1-2` when you have a moment?
False

Dear colleague, could you share the recorded outcome for `N#CC1(c2ccc(NC(=O)c3cccnc3NCc3ccncc3)cc2)CCCC1` when you have a moment?
False

Dear colleague, could you share the recorded outcome for `CNC(=O)c1cc(Oc2ccc(NC(=O)Nc3cc(C(C)(C)C)nn3-c3ccc4ncccc4c3)c(F)c2)ccn1` when you have a moment?
True

Dear colleague, could you share the recorded outcome for `CN(C[C@@H]1COCCO1)S(=O)(=O)Nc1ccc2ccc3ncc(-c4cnn(C)c4)cc3c(=O)c2c1` when you have a moment?
False

Dear colleague, could you share the recorded outcome for `Cc1cnc(NC(=O)Nc2cc(Br)c(C)cc2OC[C@@H]2CNCCO2)cn1` when you have a moment?
False

Dear colleague, could you share the recorded outcome for `COc1cc2c(Nc3ccc(Cl)c(Cl)c3F)ncnc2cc1OC[C@@H]1C[C@@H]2CN(C)C[C@@H]2C1` when you have a moment?
False

Dear colleague, could you share the recorded outcome for `COc1ccc(S(=O)(=O)N(C(C)=O)c2ccccc2/C=C/c2cc[n+]([O-])cc2)cc1` when you have a moment?
False

Dear colleague, could you share the recorded outcome for CCS(=O)(=O)N1CCN(c2ccc(Nc3ncc(C(N)=O)c(NC4CC4)n3)cc2)CC1 [Cerdulatinib Hydrochloride] when you have a moment?
False

Dear colleague, could you share the recorded outcome for `CO[C@H]1C[C@@H]2CC[C@@H](C)[C@@](O)(O2)C(=O)C(=O)N2CCCC[C@H]2C(=O)O[C@H]([C@H](C)C[C@@H]2CC[C@@H](OP(C)(C)=O)[C@H](OC)C2)CC(=O)[C@H](C)/C=C(\C)[C@@H](O)[C@@H](OC)C(=O)[C@H](C)C[C@H](C)/C=C/C=C/C=C/1C` when you have a moment?
False

Dear colleague, could you share the recorded outcome for `COc1ncc(-c2ccc3nccc(-c4ccnnc4)c3c2)cc1NS(=O)(=O)c1ccc(F)cc1F` when you have a moment?
False

Dear colleague, could you share the recorded outcome for `O=C(Cc1ccc(-c2ccc(OCCN3CCOCC3)cc2)cn1)NCc1ccccc1` when you have a moment?
False

Dear colleague, could you share the recorded outcome for `Cn1ncc(Cl)c1-c1cc(C(=O)N[C@H](CN)Cc2ccc(F)c(F)c2)oc1Cl` when you have a moment?
False

Dear colleague, could you share the recorded outcome for `CC(C)c1cc(CNc2nc(Nc3cc(C4CC4)[nH]n3)cc(N3CCN(C)CC3)n2)on1` when you have a moment?
True

Dear colleague, could you share the recorded outcome for `C=CC(=O)N1CCC[C@H](n2c(=O)n(-c3ccc(Oc4ccccc4)cc3)c3c(N)ncnc32)C1` when you have a moment?
False

Dear colleague, could you share the recorded outcome for `CN1CCN(CCOc2cc(OC3CCOCC3)c3c(Nc4c(Cl)ccc5c4OCO5)ncnc3c2)CC1` when you have a moment?
False

Dear colleague, could you share the recorded outcome for O=c1[nH]ccc2cc(OC3CCNCC3)ccc12 [SAR-407899 FREE BASE] when you have a moment?
False

Dear colleague, could you share the recorded outcome for `COCC(=O)NC/C=C/c1ccc2ncnc(Nc3ccc(Oc4ccc(C)nc4)c(C)c3)c2c1` when you have a moment?
False

Each recorded value in this set is attributed to ChEMBL document CHEMBL3991601.
